# Substrate: O=c1cc(-c2cc(O)c(O)c(O)c2)oc2cc(O)cc(O)c12
# test_summary: purified protein
# condition_context: co-substrate SAM, saturating
test_readout: Km (µM)

{"columns": ["protein", "test_readout", "readout_value"],
 "data": [
  ["TaOMT2 (Triticum aestivum; E322I) (protein) MGSIAAGADEDACMYALQLVSSSILPMTLKNAIELGLLETLMAAGGKFLTPAEVAAKLPSAANPEAPDMVDRMLRLLASYNVVSCRTEDGKDGRLSRRYGAAPVCKYLTPNEDGVSMSALALMNQDKVLMESWYYLKDAVLDGGIPFNKAYGMSAFEYHGTDPRFNRVFNEGMKNHSIIITKKLLESYKGFEGLGTLVDVGGGVGATVAAITAHYPTIKGINFDLPHVISEAPPFPGVTHVGGDMFQKVPSGDAILMKWILHDWSDEHCATLLKNCYDALPAHGKVVLVECILPVNPEATPKAQGVFHVDMIMLAHNPGGRIRYEREFEALAKGAGFAAMKTTYIYANAWAIEFTK", "Km", 193.17]
]}

Source of measurements: paper PMC3017781
